measuredProperty: log10(Ki) (log10 of the value in nM)
Plainly stated, the numbers are log10 of Ki given in nM.

Tell me its log10(Ki) on Muscarinic acetylcholine receptor M3 (Rattus norvegicus, UniProt P08483): Cc1ccc(C(C)N2C[C@@H]3[C@H](C2)[C@H]3NC(=O)C(O)(c2ccccc2)C2CCCC2)cc1 (stereo partly specified) 1.77

For Muscarinic acetylcholine receptor M3 (Rattus norvegicus, UniProt P08483), give log10(Ki) of the listed compound: O=C(N[C@H]1[C@@H]2CN(Cc3ccc4ccccc4c3)C[C@@H]21)C(O)(c1ccccc1)C1CCCC1 (stereo partly specified) 1.62

Tell me log10(Ki) of O=C(N[C@H]1[C@@H]2CN(Cc3ccccc3)C[C@@H]21)C(O)(c1ccccc1)C1CCCCCC1 (stereo partly specified) when tested on Muscarinic acetylcholine receptor M3 (Rattus norvegicus, UniProt P08483). 0.83

Print Muscarinic acetylcholine receptor M3 (Rattus norvegicus, UniProt P08483) log10(Ki) for CC(C)=CCCN1C[C@@H]2[C@H](C1)[C@H]2NC(=O)C(O)(c1ccccc1)C1CCCC1 (stereo partly specified) . 1.52

Please report the measured log10(Ki) for O=C(N[C@H]1[C@@H]2CN(CCc3ccc4c(c3)OCO4)C[C@@H]21)C(O)(c1ccccc1)C1CCCC1 (stereo partly specified) tested on Muscarinic acetylcholine receptor M3 (Rattus norvegicus, UniProt P08483). 1.30

// fetch log10(Ki); item: CC(c1ccccc1)N1C[C@@H]2[C@H](C1)[C@H]2NC(=O)C(O)(c1ccccc1)C1CCCCCC1 (stereo partly specified) ; system: Muscarinic acetylcholine receptor M3 (Rattus norvegicus, UniProt P08483) 0.26

Look up Muscarinic acetylcholine receptor M3 (Rattus norvegicus, UniProt P08483) data: log10(Ki) of O=C(N[C@H]1[C@@H]2CN(Cc3ccccc3)C[C@@H]21)C(O)(c1ccccc1)C1CCCC1 (stereo partly specified) , then report it. 1.98

Look up and report log10(Ki), with Muscarinic acetylcholine receptor M3 (Rattus norvegicus, UniProt P08483) as system, for Cc1ccc(CCN2C[C@@H]3[C@H](C2)[C@H]3NC(=O)C(O)(c2ccccc2)C2CCCC2)cc1C (stereo partly specified) 1.64

Tell me log10(Ki) of O=C(N[C@H]1[C@@H]2CN(CCc3ccccc3)C[C@@H]21)C(O)(c1ccccc1)C1CCCC1 (stereo partly specified) when tested on Muscarinic acetylcholine receptor M3 (Rattus norvegicus, UniProt P08483). 0.97

Provide log10(Ki), tested on Muscarinic acetylcholine receptor M3 (Rattus norvegicus, UniProt P08483), for O=C(N[C@H]1[C@@H]2CN(Cc3cccs3)C[C@@H]21)C(O)(c1ccccc1)C1CCCC1 (stereo partly specified) . 2.72
